- System: hCA I (Homo sapiens, UniProt P00915)
- Construct: gene CA1; recombinant, cytosolic isoform
- Sequence (P00915 2-261): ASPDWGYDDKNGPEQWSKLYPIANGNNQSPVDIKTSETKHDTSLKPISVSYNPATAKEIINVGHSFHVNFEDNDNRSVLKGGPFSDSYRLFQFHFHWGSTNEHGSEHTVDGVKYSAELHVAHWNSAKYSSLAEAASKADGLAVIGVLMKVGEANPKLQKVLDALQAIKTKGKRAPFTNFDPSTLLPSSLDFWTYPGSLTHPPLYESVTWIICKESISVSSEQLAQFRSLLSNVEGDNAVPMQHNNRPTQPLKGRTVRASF
- Test Method Notes: stopped-flow CO2 hydration assay
- Type: biochemical
- Test Settings: CO2 hydration, […] Hepes pH […] °C, […] Na2SO4 or NaClO4, […] min preincubation
Measured Attribute: Ki (nM)
Write down the numeric answer in nM and omit the unit.

So, COc1cccc2ccc(C(=O)Nc3ccc(S(N)(=O)=O)cc3)nc12 ? Its Ki was 61.9

----------
For each record, write down the corresponding Ki.
- System: hCA I (Homo sapiens, UniProt P00915)
- Construct: gene CA1; recombinant, cytosolic isoform
- Test Method Notes: stopped-flow CO2 hydration assay
- Format: biochemical
Write down the numeric answer in µM and omit the unit.

// compound NS(=O)(=O)c1ccc(NC(=O)c2ccc3cccc(OCc4ccccc4)c3n2)cc1 [5c] , assay hCA I (Homo sapiens, UniProt P00915), Ki value: 5.29

// compound C#CCOc1cccc2ccc(C(=O)Nc3ccc(S(N)(=O)=O)cc3)nc12 [5g] , assay hCA I (Homo sapiens, UniProt P00915), Ki value: 6.91

// compound Cc1cc(C)cc(COc2cccc3ccc(C(=O)Nc4ccc(S(N)(=O)=O)cc4)nc23)c1 [5d] , assay hCA I (Homo sapiens, UniProt P00915), Ki value: 8.13

// compound NS(=O)(=O)c1ccc(NC(=O)c2ccc3cccc(OCc4cc(F)ccc4F)c3n2)cc1 [5f] , assay hCA I (Homo sapiens, UniProt P00915), Ki value: 6.56

// compound NS(=O)(=O)c1ccc(NC(=O)c2ccc3cccc(OCc4cccc(Cl)c4)c3n2)cc1 [5e] , assay hCA I (Homo sapiens, UniProt P00915), Ki value: 6.47

// compound NS(=O)(=O)c1ccc(NC(=O)c2ccc3cccc(OCc4ccc([N+](=O)[O-])cc4)c3n2)cc1 [5a] , assay hCA I (Homo sapiens, UniProt P00915), Ki value: 0.641

// compound NS(=O)(=O)c1ccc(NC(=O)c2ccc3cccc(OCc4ccccc4Br)c3n2)cc1 [5b] , assay hCA I (Homo sapiens, UniProt P00915), Ki value: 0.444

----------
- System: hCA IV (Homo sapiens, UniProt P22748)
- Construct: gene CA4
- Sequence (P22748 19-284): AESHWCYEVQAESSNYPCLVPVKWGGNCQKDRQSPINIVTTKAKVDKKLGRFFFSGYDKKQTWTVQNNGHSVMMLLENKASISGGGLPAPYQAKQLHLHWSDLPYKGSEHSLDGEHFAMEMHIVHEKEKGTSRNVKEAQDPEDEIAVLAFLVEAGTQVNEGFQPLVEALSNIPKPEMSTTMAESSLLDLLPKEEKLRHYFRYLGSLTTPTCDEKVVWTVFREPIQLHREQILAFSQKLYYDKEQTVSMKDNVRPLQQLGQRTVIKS
- Test Method Notes: stopped-flow CO2 hydration assay
- Assay type: biochemical
Measured Attribute: pKi
// pKi here means minus log10 of the molar concentration (mol/L)

// molecule NS(=O)(=O)c1ccc(NC(=O)c2ccc3cccc(OCc4ccccc4)c3n2)cc1 , assay hCA IV (Homo sapiens, UniProt P22748), pKi value: 5.19

// molecule Cc1cc(C)cc(COc2cccc3ccc(C(=O)Nc4ccc(S(N)(=O)=O)cc4)nc23)c1 , assay hCA IV (Homo sapiens, UniProt P22748), pKi value: 5.17

// molecule C#CCOc1cccc2ccc(C(=O)Nc3ccc(S(N)(=O)=O)cc3)nc12 , assay hCA IV (Homo sapiens, UniProt P22748), pKi value: 6.18

// molecule NS(=O)(=O)c1ccc(NC(=O)c2ccc3cccc(OCc4cccc(Cl)c4)c3n2)cc1 , assay hCA IV (Homo sapiens, UniProt P22748), pKi value: 6.09

----------
- System: hCA II (Homo sapiens)
- Construct: gene CA2; recombinant, cytosolic isoform
- Test Method Notes: stopped-flow CO2 hydration assay
- Type: biochemical
For each record, write down the corresponding pKi.
// pKi here means minus log10 of the molar concentration (mol/L)

So, NS(=O)(=O)c1ccc(NC(=O)c2ccc3cccc(OCc4ccccc4)c3n2)cc1 ? Its pKi was 5.08

So, NS(=O)(=O)c1ccc(NC(=O)c2ccc3cccc(OCc4ccccc4Br)c3n2)cc1 ? Its pKi was 7.07

So, C#CCOc1cccc2ccc(C(=O)Nc3ccc(S(N)(=O)=O)cc3)nc12 ? Its pKi was 5.29

So, NS(=O)(=O)c1ccc(NC(=O)c2ccc3cccc(OCc4ccc([N+](=O)[O-])cc4)c3n2)cc1 ? Its pKi was 7.05

So, NS(=O)(=O)c1ccc(NC(=O)c2ccc3cccc(OCc4cc(F)ccc4F)c3n2)cc1 ? Its pKi was 6.02

So, Cc1cc(C)cc(COc2cccc3ccc(C(=O)Nc4ccc(S(N)(=O)=O)cc4)nc23)c1 ? Its pKi was 5.06

So, NS(=O)(=O)c1ccc(NC(=O)c2ccc3cccc(OCc4cccc(Cl)c4)c3n2)cc1 ? Its pKi was 5.29
